molecular target: Tyk2-JH1JH2 (Homo sapiens (Human), UniProt P29597, C1142A/C936A); assay: Enzymatic inhibition assay (RapidFire HTMS), Tyk2; conditions: 50 μM ATP, 200 μM substrate
Sequence (P29597 580-1182 C936A/C1142A): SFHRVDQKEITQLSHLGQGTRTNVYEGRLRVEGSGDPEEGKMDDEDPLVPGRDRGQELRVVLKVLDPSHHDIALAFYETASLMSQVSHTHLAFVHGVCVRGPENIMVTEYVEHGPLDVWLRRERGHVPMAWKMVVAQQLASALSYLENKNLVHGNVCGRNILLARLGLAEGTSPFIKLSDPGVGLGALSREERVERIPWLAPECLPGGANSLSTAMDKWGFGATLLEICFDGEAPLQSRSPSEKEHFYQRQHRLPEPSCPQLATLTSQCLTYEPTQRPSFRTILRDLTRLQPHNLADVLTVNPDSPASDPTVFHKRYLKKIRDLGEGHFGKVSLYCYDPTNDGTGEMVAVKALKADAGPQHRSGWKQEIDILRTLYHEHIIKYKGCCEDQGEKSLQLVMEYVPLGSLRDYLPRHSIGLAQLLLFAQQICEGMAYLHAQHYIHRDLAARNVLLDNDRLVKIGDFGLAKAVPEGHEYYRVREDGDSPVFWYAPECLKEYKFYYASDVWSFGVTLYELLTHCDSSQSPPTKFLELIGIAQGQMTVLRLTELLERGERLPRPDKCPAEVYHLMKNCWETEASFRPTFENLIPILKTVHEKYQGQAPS
pIC50: −log10 of the molar value.
Decision: pIC50 >= 8 yields yes, all other cases yield no.

- N#CC[C@H]1CC[C@H](n2c(CNC(=O)Oc3ccccc3)nc3cnc4[nH]ccc4c32)CC1: yes

Tell me whether pIC50 is at least 8 here: N#CC[C@H]1CC[C@H](n2c(-c3cnn(CC(=O)NC4CC4)c3)nc3cnc4[nH]ccc4c32)CC1 no

State whether the measured pIC50 reaches 8, counting equality as reaching it, for N#CC[C@H]1CC[C@H](n2c(CO/N=C(\N)CC3CC3)nc3cnc4[nH]ccc4c32)CC1 no

Could you verify whether the entry N#CC[C@H]1CC[C@H](n2c(Cn3c(C4CC4)noc3=O)nc3cnc4[nH]ccc4c32)CC1 shows pIC50 of no less than 8? no

Does the compound COCCNC(=O)c1nc2cnc3[nH]ccc3c2n1[C@H]1CC[C@H](CC#N)CC1 have recorded pIC50 that is 8 or more? no

Check the entry N#CC[C@H]1CC[C@H](n2c(CC(=O)NC34CCC(C(N)=O)(CC3)C4)nc3cnc4[nH]ccc4c32)CC1 : does pIC50 equal or exceed 8? yes

Decide: pIC50 of N#CC[C@H]1CC[C@H](n2c(CNS(=O)(=O)C3CCCCC3)nc3cnc4[nH]ccc4c32)CC1 >= 8? no

Please check the record N#CC[C@H]1CC[C@H](n2c(CC(=O)NCC(F)(F)F)nc3cnc4[nH]ccc4c32)CC1 and state if its pIC50 is at or above 8. yes

Say whether C[S@](=O)(=NCc1nc2cnc3[nH]ccc3c2n1[C@H]1CC[C@H](CC#N)CC1)c1ccccc1 shows pIC50 of 8 or more. no

Item N#CC[C@H]1CC[C@H](n2c(CNS(=O)(=O)c3ccccc3)nc3cnc4[nH]ccc4c32)CC1 with pIC50 of 8 or above? no

Please indicate if the recorded pIC50 for N#CC[C@H]1CC[C@H](n2c(CN/C(=N\O)C3CC3)nc3cnc4[nH]ccc4c32)CC1 meets or exceeds 8. no

Hi team, for N#CC[C@H]1CC[C@H](n2c(CC(=O)Nc3cn[nH]c3)nc3cnc4[nH]ccc4c32)CC1 , is the recorded pIC50 at or above 8? yes

====

biological target: JAK2-JH1JH2 (Homo sapiens (Human))
Sequence (O60674 532-1132): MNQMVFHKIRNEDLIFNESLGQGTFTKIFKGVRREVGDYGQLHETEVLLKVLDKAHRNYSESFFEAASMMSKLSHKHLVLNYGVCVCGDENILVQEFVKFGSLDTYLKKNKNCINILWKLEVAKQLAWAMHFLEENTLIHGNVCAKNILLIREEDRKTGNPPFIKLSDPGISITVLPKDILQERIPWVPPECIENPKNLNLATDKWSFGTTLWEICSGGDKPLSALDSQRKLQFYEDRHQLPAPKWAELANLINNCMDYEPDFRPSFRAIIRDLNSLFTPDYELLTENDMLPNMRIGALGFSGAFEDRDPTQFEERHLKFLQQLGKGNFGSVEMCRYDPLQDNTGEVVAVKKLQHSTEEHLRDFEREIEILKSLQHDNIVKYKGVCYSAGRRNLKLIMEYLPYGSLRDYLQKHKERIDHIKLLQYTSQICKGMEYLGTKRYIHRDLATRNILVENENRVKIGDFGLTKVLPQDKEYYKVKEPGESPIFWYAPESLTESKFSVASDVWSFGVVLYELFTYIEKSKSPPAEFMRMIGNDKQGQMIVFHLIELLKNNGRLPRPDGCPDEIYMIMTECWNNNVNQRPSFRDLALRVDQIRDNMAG
MEASURED_METRIC: pIC50
A value of pIC50 is the negative decimal logarithm of a concentration given in moles per litre.

Consider the worked cases shown below.
- CCOC(=O)Cn1cc(-c2nc3cnc4[nH]ccc4c3n2[C@H]2CC[C@H](CC#N)CC2)cn1: 7.61
- N#CC[C@H]1CC[C@H](n2c(CNS(=O)(=O)c3ccccc3)nc3cnc4[nH]ccc4c32)CC1: 7.40
- N#CC[C@H]1CC[C@H](n2c(CC(=O)N3CCC(C#N)CC3)nc3cnc4[nH]ccc4c32)CC1: 7.71

Look up pIC50 with JAK2-JH1JH2 (Homo sapiens (Human)) for this molecule: N#CCCNC(=O)c1nc2cnc3[nH]ccc3c2n1[C@H]1CC[C@H](CC#N)CC1 7.72

Which pIC50 is reported with JAK2-JH1JH2 (Homo sapiens (Human)) for this entry: N#CC[C@H]1CC[C@H](n2c(CC(=O)N[C@H]3CC[C@@H](O)CC3)nc3cnc4[nH]ccc4c32)CC1 ? 8.64

Observed pIC50 on JAK2-JH1JH2 (Homo sapiens (Human)) for N#CC[C@H]1CC[C@H](n2c(CC(=O)Nc3ccncc3)nc3cnc4[nH]ccc4c32)CC1 , please. 8.46

Give recorded pIC50 with JAK2-JH1JH2 (Homo sapiens (Human)) for the following molecule: N#CC[C@H]1CC[C@H](n2c(CC(=O)NCC3(O)CC3)nc3cnc4[nH]ccc4c32)CC1 8.21

Lab note: need pIC50 for COCC/C(=N/O)NCc1nc2cnc3[nH]ccc3c2n1[C@H]1CC[C@H](CC#N)CC1 on JAK2-JH1JH2 (Homo sapiens (Human)), anyone have it? 7.57

Form: Entry = N#CC[C@H]1CC[C@H](n2c(CC(=O)NCC3(O)COC3)nc3cnc4[nH]ccc4c32)CC1 | System = JAK2-JH1JH2 (Homo sapiens (Human)) | pIC50 = ____ 8.31

Recall the recorded pIC50 for N#CC[C@H]1CC[C@H](n2c(C(=O)NC3COC3)nc3cnc4[nH]ccc4c32)CC1 with JAK2-JH1JH2 (Homo sapiens (Human)) and state it. 7.68
